The entries that follow carry IC50 values tested on Macrophage colony-stimulating factor 1 receptor (Homo sapiens, UniProt P07333), drawn from several published reports.

Would you please look over these solved cases?
smiles.record	IC50
CCOc1ccc(Nc2ccc(Cc3c[nH]c4ncc(C)cc34)c(F)n2)cn1	< 0.01 µM
Cn1cc(S(=O)(=O)Nc2ccc(F)c(C(=O)c3c[nH]c4ncc(Cl)cc34)c2F)c(C(F)(F)F)n1	≤ 10 µM
COc1cc(OC)cc(C(=O)c2c[nH]c3ncc(-c4cccnc4)cc23)c1	≤ 10 µM
CCCNc1ncnc2[nH]cc(C(=O)c3ccc(Nc4ccc(CC)nc4)nc3F)c12	< 0.01 µM

IC50 for Cc1ccc(NC(=O)Nc2cccc(C(=O)c3c[nH]c4ncc(-c5cccnc5)cc34)c2)cc1 ?
≤ 10 µM

###

The entries that follow carry pIC50 values tested on Macrophage colony-stimulating factor 1 receptor (Homo sapiens), drawn from several published reports.
pIC50: −log10 of the molar value.

Would you please look over these solved cases?
molecule	pIC50
Clc1ccc(CNc2ccc(Cc3c[nH]c4nccc(Cl)c34)cn2)cc1	≥ 5.00
Nc1ncnc2[nH]cc(C(=O)c3ccc(NC4CCC(F)(F)CC4)nc3Cl)c12	> 7.00
COc1ncc(-c2cnc3[nH]cc(C(=O)c4c(F)ccc(NS(=O)(=O)CC(C)C)c4F)c3c2)cn1	≥ 5.00
CC(=O)N1CC=C(c2[nH]c3ncc(C#CCCO)cc3c2CC(C)C)CC1	> 8.00
COc1ncnc2[nH]cc(Cc3ccc(Nc4ccc(C)nc4)nc3F)c12	> 8.00
Cc1cccc(C(=O)Nc2cccc([C@H](C)Oc3cc(Cl)cnc3N)c2)c1Cl	≥ 7.30
COc1cccc(Sc2c[nH]c3ncc(Br)cc23)c1	≥ 5.00
Nc1ncc(-c2cccc(CN3CCN[C@H](C(=O)OC4CCCC4)C3)c2)nc1NCc1c(Cl)cccc1Cl	6.00 to 6.52

Dear colleague, could you send me pIC50 for each of the items below? Thanks.
1. COc1cc(CNc2ncc(Cc3c[nH]c4ncncc34)cn2)c(F)cn1
2. CC(C)(C)c1ccc(S(=O)(=O)Nc2ccc(F)c(C(=O)c3c[nH]c4ncc(Cl)cc34)c2F)cc1
3. COc1cc(Cc2c[nH]c3ncc(Cl)cc23)c(F)cc1OCc1nc2cc(F)ccc2[nH]1
4. COc1cc(OC)cc(C(O)c2c[nH]c3ncc(Br)cc23)c1 (centres unmarked)
5. Cc1ccc(Nc2ccc(C(=O)c3c[nH]c4ncnc(NCC(F)(F)F)c34)c(F)n2)cn1

1: ≥ 5.00; 2: ≥ 5.00; 3: ≥ 5.00; 4: ≥ 5.00; 5: > 7.00

Dear colleague, could you send me pIC50 for each of the items below? Thanks.
1. CC(C)CS(=O)(=O)Nc1ccc(F)c(C(=O)c2c[nH]c3ncc(-c4ccc(F)cc4)cc23)c1F
2. CCCS(=O)(=O)Nc1ccc(F)c(C(=O)c2c[nH]c3ncc(Br)cc23)c1F
3. CCCS(=O)(=O)Nc1ccc(F)c(C(=O)c2c[nH]c3ncc(-c4ccc(NC(C)=O)nc4)cc23)c1F
4. O=C(Nc1cccc(C(=O)c2c[nH]c3ncc(-c4cccnc4)cc23)c1)Nc1cccc(C(F)(F)F)c1
5. CC(C)Oc1ccc(S(=O)(=O)Nc2ccc(F)c(C(=O)c3c[nH]c4ncc(Cl)cc34)c2F)cc1
6. CNc1ncnc2[nH]cc(C(=O)c3ccc(Nc4cncc(OC)c4)nc3F)c12

≥ 5.00
≥ 5.00
≥ 5.00
≥ 5.00
≥ 5.00
> 7.00

Dear colleague, could you send me pIC50 for each of the items below? Thanks.
1. Fc1cc(CNc2ccc(Cc3c[nH]c4ncncc34)c(F)n2)ccn1
2. Fc1cc(OCc2nc3ccccc3[nH]2)cc(F)c1Cc1c[nH]c2ncccc12
3. O=C(Nc1ccc(Cc2c[nH]c3ncccc23)cc1)Nc1ccc(Cl)c(C(F)(F)F)c1
4. OCCOc1ccc(F)c(Cc2c[nH]c3ncc(-c4cccnc4)cc23)c1F
5. OC(c1ccc(NCc2ccc(C(F)(F)F)cc2)nc1)c1c[nH]c2ncccc12 (centres unmarked)
6. CCCS(=O)(=O)Nc1ccc(F)c(C(=O)c2c[nH]c3ncc(-c4nccn4C)cc23)c1F

≥ 5.00
≥ 5.00
≥ 5.00
≥ 5.00
≥ 5.00
≥ 5.00

###

The entries that follow carry pIC50 values tested on Macrophage colony-stimulating factor 1 receptor (Homo sapiens, UniProt P07333), drawn from several published reports.
pIC50: −log10 of the molar value.

Dear colleague, could you send me pIC50 for each of the items below? Thanks.
1. CN(C)Cc1c[nH]c2cc(Nc3ncc4cc(C#N)c(=O)n(C5CCCC5)c4n3)ccc12
2. CC(C)(C)OC[C@H](NCc1cccc(-c2cnc(N)c(NCc3c(Cl)cccc3Cl)n2)c1)C(=O)OC1CCCC1
3. CCCS(=O)(=O)Nc1ccc(F)c(C(=O)c2c[nH]c3ncc(/C=C/C(=O)O)cc23)c1F
4. CNc1cc(Oc2ccc(NC(=O)N3CCC(C)(C)C3=O)nc2C)ccn1
5. CC(C)Nc1ncc(-c2ccc(Cc3c[nH]c4ncccc34)cn2)c(=O)[nH]1
6. CN(C)c1ccc(NC(=O)Nc2cccc(C(=O)c3c[nH]c4ncc(Cl)cc34)c2)cc1

1: 8.60; 2: < 5.30; 3: ≥ 5.00; 4: 5.64; 5: 7.71; 6: ≥ 5.00

###

The entries that follow carry pIC50 values tested on Macrophage colony-stimulating factor 1 receptor (Homo sapiens, UniProt P07333), drawn from several published reports.
pIC50: −log10 of the molar value.

smiles.record	pIC50
CCn1cc(Nc2ccc(Cc3c[nH]c4ncnc(C5CC5)c34)c(F)n2)cn1	> 8.00
COc1ccc(CNc2ccc(Cc3c[nH]c4ncncc34)cn2)cn1	≥ 5.00
CCCS(=O)(=O)Nc1ccc(F)c(C(=O)c2c[nH]c3ncc(-c4cccc(C(N)=O)c4)cc23)c1F	≥ 5.00
O=C(Cc1ccc(-c2cnc3[nH]nc(C4CC4)c3c2)cc1)Nc1cncc(C(F)(F)F)c1	5.00 to 10.00
COc1cc(NC(=O)Nc2cccc(C(=O)c3c[nH]c4ncc(-c5cccnc5)cc34)c2)cc(C(F)(F)F)c1	≥ 5.00
Fc1cccc(F)c1Cc1c[nH]c2ncccc12	≥ 5.00
COc1cccc(C(=O)c2c[nH]c3ncc(-c4cccc(/C=C/C(=O)O)c4)cc23)c1	≥ 5.00
CCCS(=O)(=O)Nc1ccc(F)c(C(=O)c2c[nH]c3ncc(-c4ccc(CCCOC)nc4)cc23)c1F	≥ 5.00

Dear colleague, could you send me pIC50 for each of the items below? Thanks.
1. O=C(Nc1cccc(C(=O)c2c[nH]c3ncc(Cl)cc23)c1)Nc1cc(C(F)(F)F)ccc1Cl
2. CCc1ccc(Nc2ncc(Cc3c[nH]c4ncc(C)cc34)cn2)cc1
3. O=C(Nc1cccc(C(=O)c2c[nH]c3ncccc23)c1)Nc1ccc(C(F)(F)F)cc1Cl
4. COc1cc2c(Nc3cccc(Cl)c3Cl)c(C(N)=O)cnc2cc1N1CCN(C)CC1

≥ 5.00
> 7.00
≥ 5.00
7.64

Dear colleague, could you send me pIC50 for each of the items below? Thanks.
1. O=C(c1cc(NS(=O)(=O)C2CCCC2)ccc1F)c1c[nH]c2ncccc12
2. CCc1ccc(Nc2ccc(C(=O)c3c[nH]c4ncc(C)cc34)c(F)n2)cn1

1. ≥ 5.00
2. > 8.00

###

The entries that follow carry pIC50 values tested on Macrophage colony-stimulating factor 1 receptor (Homo sapiens), drawn from several published reports.
pIC50: −log10 of the molar value.

Would you please look over these solved cases?
smiles.record	tgt	pIC50
O=C(c1c(F)ccc(NS(=O)(=O)c2ccccc2F)c1F)c1c[nH]c2nccc(Cl)c12	Macrophage colony-stimulating factor 1 receptor (Homo sapiens)	≥ 5.00
C#Cc1ccnc2[nH]cc(C(=O)c3c(F)ccc(NS(=O)(=O)c4ccc(C(F)(F)F)cc4)c3F)c12	Macrophage colony-stimulating factor 1 receptor (Homo sapiens)	< 5.00

Next compound, please.
Identify the measured pIC50 of O=C(c1ccc(Cl)cc1Cl)c1c[nH]c2ncc(Oc3ccccc3)cc12 for Macrophage colony-stimulating factor 1 receptor (Homo sapiens).
≥ 5.00

###

The entries that follow carry pIC50 values tested on UniProtKB P07333, drawn from several published reports.
pIC50: −log10 of the molar value.

Would you please look over these solved cases?
smiles.record	tgt	pIC50
COC(=O)Nc1ccc(F)c(C(=O)c2c[nH]c3ncc(-c4cccnc4)cc23)c1F	UniProtKB P07333	≥ 5.00
O=C(O)Cc1cccc(Oc2cnc3[nH]cc(C(=O)c4ccc(F)cc4Cl)c3c2)c1	UniProtKB P07333	≥ 5.00
COc1ccc(F)c(C(=O)c2c[nH]c3ncc(-c4cccs4)cc23)c1	UniProtKB P07333	≥ 5.00
Cc1ccc(C(=O)Nc2cccc([C@@H](C)Oc3cc(-c4cnn(C)c4)cnc3N)c2)cc1C	UniProtKB P07333	≥ 7.30
COc1cccc(C(=O)c2c[nH]c3ncc(-c4cccc(OC(F)(F)F)c4)cc23)c1F	UniProtKB P07333	≥ 5.00

Dear colleague, could you send me pIC50 for each of the items below? Thanks.
1. CCOc1ccc(Nc2ccc(Cc3c[nH]c4ncnc(OCCOC)c34)c(F)n2)cn1
2. CCc1ccc(Nc2ccc(Cc3c[nH]c4ncnc(OCCOC)c34)c(F)n2)cn1
3. COc1ccc(CNc2ncc(Cc3c[nH]c4ncncc34)cc2F)cn1

1. > 8.00
2. > 8.00
3. ≥ 5.00

Dear colleague, could you send me pIC50 for each of the items below? Thanks.
1. CSc1ccc(Nc2ncc(Cc3c[nH]c4ncc(C)cc34)cn2)cc1
2. Cn1cc(-c2cnc3[nH]cc(C(=O)c4c(F)ccc(OCC(F)(F)F)c4Cl)c3c2)cn1

["> 7.00", "≥ 5.00"]
